- test-protocol: In vivo absorption of lofexidine from the sublingual cavity (pharmacokinetics, sublingual vs intravenous)
- Set-up: species or system rabbit
- measurement-context: rabbit; sublingual administration, 1 mg/kg single dose, rabbits (n = 3), plasma, average
experimental-endpoint: Cmax (ng/mL)
Report the figure in ng/mL without appending any unit label.

In: For the compound shown here, CC(Oc1c(Cl)cccc1Cl)C1=NCCN1 (stereo not shown) [lofexidine] , give the reported Cmax.
Out: 392

* * *

- test-protocol: In vivo absorption of lofexidine from the sublingual cavity (pharmacokinetics, sublingual vs intravenous)
- Parameters: species or system rabbit
- measurement-context: rabbit, other: sublingual (transmucosal); sublingual vs intravenous, 1 mg/kg, rabbits, from areas under the plasma concentration versus time curves; read-out: bioavailability (of the administered dose, relative to intravenous)
experimental-endpoint: bioavailability

In: For the compound shown here, CC(Oc1c(Cl)cccc1Cl)C1=NCCN1 (stereo not shown) , give the reported bioavailability.
Out: ~80%

* * *

- test-protocol: In vivo absorption of lofexidine from the sublingual cavity (pharmacokinetics, sublingual vs intravenous)
- Design: species or system rabbit
- measurement-context: rabbit; sublingual administration, 1 mg/kg single dose, rabbits (n = 3), plasma, average
- Procedure: These experiments determine the bioavailability of lofexidine after transmucosal administration to the sublingual tissue in rabbit and compare it to that after intravenous administration. The transmucosal absorption of lofexidine was measured using an in vivo technique in rabbits. Following introduction of lidocaine local anesthesia, a catheter was placed in the marginal ear artery of the rabbit for blood sample collection. […]
experimental-endpoint: half-life (h)
Report the figure in h without appending any unit label.

In: For the molecule shown here, CC(Oc1c(Cl)cccc1Cl)C1=NCCN1 (stereo not shown) , give the reported half-life.
Out: 1.25
